# measured_target: the molecule itself
# assay_explanation: DEER (EPR) spectroscopy; MTSL spin label on a single cysteine; distances between homologous sites in each monomer; 300-500 uM, D2O buffer with 50% d8-glycerol, flash frozen, measured at 50 K

{"protein": "SGTA NT-TPR S88C single-cysteine mutant, MTSL spin-labelled (domain or fragment, human, UniProt O43765 1-213, looked up, MTSL spin label on cysteine 88, SGTA, human, residues 1-213; all four wild-type cysteines changed to serine, then S88C; also called C-terminal deletion mutant S88C; source: E. coli, prepared in the same way as the wild-type versions, MTSL spin-labelled, size-exclusion chromatography; not shown: thioredoxin A, N-terminal, cleaved; His6, N-terminal, cleaved) MDNKKRLAYAIIQFLHDQLRHGGLSSDAQESLEVAIQSLETAFGVTVEDSDLALPQTLPEIFEAAATGKEMPQDLRSPARTPPSEEDCAEAERLKTEGNEQMKVENFEAAVHFYGKAIELNPANAVYFSNRAAAYSKLGNYAGAVQDSERAISIDPAYSKAYGRMGLALSSLNKHVEAVAYYKKALELDPDNETYKSNLKIAELKLREAPSPT", "binding result": "binds"}
{"protein": "SGTA NT-TPR S136C single-cysteine mutant, MTSL spin-labelled (domain or fragment, human, UniProt O43765 1-213, looked up, MTSL spin label on cysteine 136, SGTA, human, residues 1-213; all four wild-type cysteines changed to serine, then S136C; also called C-terminal deletion mutant S136C; source: E. coli, prepared in the same way as the wild-type versions, MTSL spin-labelled, size-exclusion chromatography; not shown: thioredoxin A, N-terminal, cleaved; His6, N-terminal, cleaved) MDNKKRLAYAIIQFLHDQLRHGGLSSDAQESLEVAIQSLETAFGVTVEDSDLALPQTLPEIFEAAATGKEMPQDLRSPARTPPSEEDSAEAERLKTEGNEQMKVENFEAAVHFYGKAIELNPANAVYFSNRAAAYCKLGNYAGAVQDSERAISIDPAYSKAYGRMGLALSSLNKHVEAVAYYKKALELDPDNETYKSNLKIAELKLREAPSPT", "binding result": "binds"}
{"protein": "FL SGTA S197C single-cysteine mutant, MTSL spin-labelled (natural protein, human, UniProt O43765 1-313, looked up, MTSL spin label on cysteine 197, SGTA, human, residues 1-313; all four wild-type cysteines changed to serine, then S197C; source: E. coli, prepared in the same way as the wild-type versions, MTSL spin-labelled, size-exclusion chromatography; not shown: thioredoxin A, N-terminal, cleaved; His6, N-terminal, cleaved) MDNKKRLAYAIIQFLHDQLRHGGLSSDAQESLEVAIQSLETAFGVTVEDSDLALPQTLPEIFEAAATGKEMPQDLRSPARTPPSEEDSAEAERLKTEGNEQMKVENFEAAVHFYGKAIELNPANAVYFSNRAAAYSKLGNYAGAVQDSERAISIDPAYSKAYGRMGLALSSLNKHVEAVAYYKKALELDPDNETYKCNLKIAELKLREAPSPTGGVGSFDIAGLLNNPGFMSMASNLMNNPQIQQLMSGMISGGNNPLGTPGTSPSQNDLASLIQAGQQFAQQMQQQNPELIEQLRSQIRSRTPSASNDDQQE", "binding result": "binds"}
{"protein": "SGTA NT-TPR S197C single-cysteine mutant, MTSL spin-labelled (domain or fragment, human, UniProt O43765 1-213, looked up, MTSL spin label on cysteine 197, SGTA, human, residues 1-213; all four wild-type cysteines changed to serine, then S197C; also called C-terminal deletion mutant S197C; source: E. coli, prepared in the same way as the wild-type versions, MTSL spin-labelled, size-exclusion chromatography; not shown: thioredoxin A, N-terminal, cleaved; His6, N-terminal, cleaved) MDNKKRLAYAIIQFLHDQLRHGGLSSDAQESLEVAIQSLETAFGVTVEDSDLALPQTLPEIFEAAATGKEMPQDLRSPARTPPSEEDSAEAERLKTEGNEQMKVENFEAAVHFYGKAIELNPANAVYFSNRAAAYSKLGNYAGAVQDSERAISIDPAYSKAYGRMGLALSSLNKHVEAVAYYKKALELDPDNETYKCNLKIAELKLREAPSPT", "binding result": "binds"}
{"protein": "SGTA NT-TPR C153 single-cysteine variant, MTSL spin-labelled (domain or fragment, human, UniProt O43765 1-213, looked up, MTSL spin label on cysteine 153, SGTA, human, residues 1-213; the other three wild-type cysteines changed to serine, wild-type C153 kept; also called C-terminal deletion mutant C153; source: E. coli, prepared in the same way as the wild-type versions, MTSL spin-labelled, size-exclusion chromatography; not shown: thioredoxin A, N-terminal, cleaved; His6, N-terminal, cleaved) MDNKKRLAYAIIQFLHDQLRHGGLSSDAQESLEVAIQSLETAFGVTVEDSDLALPQTLPEIFEAAATGKEMPQDLRSPARTPPSEEDSAEAERLKTEGNEQMKVENFEAAVHFYGKAIELNPANAVYFSNRAAAYSKLGNYAGAVQDSERAICIDPAYSKAYGRMGLALSSLNKHVEAVAYYKKALELDPDNETYKSNLKIAELKLREAPSPT", "binding result": "binds"}
{"protein": "FL SGTA S88C single-cysteine mutant, MTSL spin-labelled (natural protein, human, UniProt O43765 1-313, looked up, MTSL spin label on cysteine 88, SGTA, human, residues 1-313; all four wild-type cysteines changed to serine, then S88C; source: E. coli, prepared in the same way as the wild-type versions, MTSL spin-labelled, size-exclusion chromatography; not shown: thioredoxin A, N-terminal, cleaved; His6, N-terminal, cleaved) MDNKKRLAYAIIQFLHDQLRHGGLSSDAQESLEVAIQSLETAFGVTVEDSDLALPQTLPEIFEAAATGKEMPQDLRSPARTPPSEEDCAEAERLKTEGNEQMKVENFEAAVHFYGKAIELNPANAVYFSNRAAAYSKLGNYAGAVQDSERAISIDPAYSKAYGRMGLALSSLNKHVEAVAYYKKALELDPDNETYKSNLKIAELKLREAPSPTGGVGSFDIAGLLNNPGFMSMASNLMNNPQIQQLMSGMISGGNNPLGTPGTSPSQNDLASLIQAGQQFAQQMQQQNPELIEQLRSQIRSRTPSASNDDQQE", "binding result": "binds"}
{"protein": "FL SGTA S136C single-cysteine mutant, MTSL spin-labelled (natural protein, human, UniProt O43765 1-313, looked up, MTSL spin label on cysteine 136, SGTA, human, residues 1-313; all four wild-type cysteines changed to serine, then S136C; source: E. coli, prepared in the same way as the wild-type versions, MTSL spin-labelled, size-exclusion chromatography; not shown: thioredoxin A, N-terminal, cleaved; His6, N-terminal, cleaved) MDNKKRLAYAIIQFLHDQLRHGGLSSDAQESLEVAIQSLETAFGVTVEDSDLALPQTLPEIFEAAATGKEMPQDLRSPARTPPSEEDSAEAERLKTEGNEQMKVENFEAAVHFYGKAIELNPANAVYFSNRAAAYCKLGNYAGAVQDSERAISIDPAYSKAYGRMGLALSSLNKHVEAVAYYKKALELDPDNETYKSNLKIAELKLREAPSPTGGVGSFDIAGLLNNPGFMSMASNLMNNPQIQQLMSGMISGGNNPLGTPGTSPSQNDLASLIQAGQQFAQQMQQQNPELIEQLRSQIRSRTPSASNDDQQE", "binding result": "binds"}
{"protein": "FL SGTA C153 single-cysteine variant, MTSL spin-labelled (natural protein, human, UniProt O43765 1-313, looked up, MTSL spin label on cysteine 153, SGTA, human, residues 1-313; the other three wild-type cysteines changed to serine, wild-type C153 kept; source: E. coli, prepared in the same way as the wild-type versions, MTSL spin-labelled, size-exclusion chromatography; not shown: thioredoxin A, N-terminal, cleaved; His6, N-terminal, cleaved) MDNKKRLAYAIIQFLHDQLRHGGLSSDAQESLEVAIQSLETAFGVTVEDSDLALPQTLPEIFEAAATGKEMPQDLRSPARTPPSEEDSAEAERLKTEGNEQMKVENFEAAVHFYGKAIELNPANAVYFSNRAAAYSKLGNYAGAVQDSERAICIDPAYSKAYGRMGLALSSLNKHVEAVAYYKKALELDPDNETYKSNLKIAELKLREAPSPTGGVGSFDIAGLLNNPGFMSMASNLMNNPQIQQLMSGMISGGNNPLGTPGTSPSQNDLASLIQAGQQFAQQMQQQNPELIEQLRSQIRSRTPSASNDDQQE", "binding result": "binds"}
